Listing: abundance fitness of selected variants
B1: Dystrobrevin alpha, residues 235 to 294; numbered along this chain, Q9Y4J8 (parent)
chain: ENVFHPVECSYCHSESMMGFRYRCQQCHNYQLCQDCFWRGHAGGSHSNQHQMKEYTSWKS

# Variants of: B1
# Protocol Notes: abundance fitness (aPCA) (normalised: wild type 0, dead -1); higher = more abundant; growth selection in yeast, the domain comes from the species named
# Condition Details: Homo sapiens

{"Chain Sequence": "ENVFHPVECSYCHSESMMGFRYRCQQQHNYQLCQDCFWRGHAGGSHSNQHQMKEYTSWKS [C27Q]", "abundance fitness": -0.943}
{"Chain Sequence": "ENVFHPVECSYCHPESMMGFRYRCQQCHNYQLCQDCFWRGHAGGSHSNQHQMKEYTSWKS [S14P]", "abundance fitness": -0.679}
{"Chain Sequence": "ENVFHPVECSYCHSESMMGFRYRCQQCHNYQLCQDCFWRGHAGGSHSNQHQMKEDTSWKS [Y55D]", "abundance fitness": 0.243}
{"Chain Sequence": "ENVFHPVECSYCHSESMMGFRYRCQQCHNYQLCQDCFWRGHAGGHHSNQHQMKEYTSWKS [S45H]", "abundance fitness": -0.291}
{"Chain Sequence": "ENVFHPVECPYCHSESMMGFRYRCQQCHNYQLCQDCFWRGHAGGSHSNQHQMKEYTSWKS [S10P]", "abundance fitness": -0.421}
{"Chain Sequence": "MNVFHPVECSYCHSESMMGFRYRCQQCHNYQLCQDCFWRGHAGGSHSNQHQMKEYTSWKS [E1M]", "abundance fitness": -0.377}
{"Chain Sequence": "ENVFHPVECSYCHSESMMGFRYRCQQCHNYQLCQDCFWRGHAGGSHSNQHQMKEQTSWKS [Y55Q]", "abundance fitness": -0.071}
{"Chain Sequence": "ENVFHPVECSYCHSESMMGFRYACQQCHNYQLCQDCFWRGHAGGSHSNQHQMKEYTSWKS [R23A]", "abundance fitness": -0.049}
{"Chain Sequence": "ENVFHPVECSYCHSESMMGFRKRCQQCHNYQLCQDCFWRGHAGGSHSNQHQMKEYTSWKS [Y22K]", "abundance fitness": -0.263}
{"Chain Sequence": "ENVFHPVECSYCHSESMMGFRYRCQQCHNYQLCGDCFWRGHAGGSHSNQHQMKEYTSWKS [Q34G]", "abundance fitness": -0.027}
{"Chain Sequence": "ENVFHPVECSYCHSESMMGFRYRCQQCINYQLCQDCFWRGHAGGSHSNQHQMKEYTSWKS [H28I]", "abundance fitness": 0.033}
{"Chain Sequence": "ENVFHPVECSYCHSESMMGFRYSCQQCHNYQLCQDCFWRGHAGGSHSNQHQMKEYTSWKS [R23S]", "abundance fitness": 0.066}
{"Chain Sequence": "ENVFHPVECSYCHSESMMGFRYRCQQCHNYQLCQDCFWRGHAGGSHSNQHQMKEYYSWKS [T56Y]", "abundance fitness": -0.509}
{"Chain Sequence": "ENVFHPVECSYCHSESMMGFRYRCQQCHNYQLCLDCFWRGHAGGSHSNQHQMKEYTSWKS [Q34L]", "abundance fitness": -0.423}
{"Chain Sequence": "SNVFHPVECSYCHSESMMGFRYRCQQCHNYQLCQDCFWRGHAGGSHSNQHQMKEYTSWKS [E1S]", "abundance fitness": -0.183}
{"Chain Sequence": "ENVFHPVECSYCHSESMMGFRYRCQQCHNYQLCQDCFWRAHAGGSHSNQHQMKEYTSWKS [G40A]", "abundance fitness": -0.391}
{"Chain Sequence": "ENVFHPVECSYCHSEWMMGFRYRCQQCHNYQLCQDCFWRGHAGGSHSNQHQMKEYTSWKS [S16W]", "abundance fitness": -0.208}
{"Chain Sequence": "ENVFHPVECSYCHSESMMGFRYRCQQCHNYKLCQDCFWRGHAGGSHSNQHQMKEYTSWKS [Q31K]", "abundance fitness": -0.318}
